The entries below are paired with their reported AcTub (1 uM - normalized).
Tested on: acetylated α-tubulin (AcTub) levels in QBI293 cells
Assay Comment: QBI293 cell assay of MT stabilization: acetylated α-tubulin ELISA
Assay type: cell-based
Test Context: 1 uM compound, normalized

{"Molecule": "C[C@H](Nc1c(-c2c(F)cc(OCCCCCO)cc2F)c(Cl)nc2ncnn12)C(F)(F)F [Compound 20]", "Target Entity": "acetylated α-tubulin (AcTub) levels in QBI293 cells", "AcTub (1 uM - normalized)": 0.50}
{"Molecule": "C[C@@H](Nc1c(-c2c(F)cc(C#CCCCO)cc2F)c(Cl)nc2ncnn12)C(C)(C)C [Compound 54]", "Target Entity": "acetylated α-tubulin (AcTub) levels in QBI293 cells", "AcTub (1 uM - normalized)": 0.74}
{"Molecule": "CN(C)CCCOc1cc(F)c(-c2c(Cl)nc3ncnn3c2NCC2(C)CC2)c(F)c1 [Compound 28]", "Target Entity": "acetylated α-tubulin (AcTub) levels in QBI293 cells", "AcTub (1 uM - normalized)": 0.53}
{"Molecule": "CC(C)[C@@H](C)Nc1c(-c2c(F)cc(C#CCCO)cc2F)c(Cl)nc2ncnn12 [Compound 45]", "Target Entity": "acetylated α-tubulin (AcTub) levels in QBI293 cells", "AcTub (1 uM - normalized)": 0.48}
{"Molecule": "CC(C)[C@@H](C)Nc1c(-c2c(F)cc(C#CCCN(C)C)cc2F)c(Cl)nc2ncnn12 [Compound 52]", "Target Entity": "acetylated α-tubulin (AcTub) levels in QBI293 cells", "AcTub (1 uM - normalized)": 1.75}
{"Molecule": "C[C@@H](Nc1c(-c2c(F)cc(C#CCCN(C)C)cc2F)c(Cl)nc2ncnn12)C(C)(C)C [Compound 60]", "Target Entity": "acetylated α-tubulin (AcTub) levels in QBI293 cells", "AcTub (1 uM - normalized)": 1.75}
{"Molecule": "C[C@H](Nc1c(-c2c(F)cc(OCCCN(C)C)cc2F)c(Cl)nc2ncnn12)C1(C)N=N1 [Compound 67]", "Target Entity": "acetylated α-tubulin (AcTub) levels in QBI293 cells", "AcTub (1 uM - normalized)": 1.01}
{"Molecule": "C[C@@H](Nc1c(-c2c(F)cc(F)cc2F)c(Cl)nc2ncnn12)C1CC1 [Compound 17]", "Target Entity": "acetylated α-tubulin (AcTub) levels in QBI293 cells", "AcTub (1 uM - normalized)": 0.19}
{"Molecule": "C[C@H](Nc1c(-c2c(F)cc(F)cc2F)c(Cl)nc2ncnn12)C1(C)N=N1 [Compound 62]", "Target Entity": "acetylated α-tubulin (AcTub) levels in QBI293 cells", "AcTub (1 uM - normalized)": 0.13}
{"Molecule": "CC1(CNc2c(-c3c(F)cc(F)cc3F)c(Cl)nc3ncnn23)CC1 [Compound 13]", "Target Entity": "acetylated α-tubulin (AcTub) levels in QBI293 cells", "AcTub (1 uM - normalized)": 0.26}
{"Molecule": "C[C@@H](Nc1c(-c2c(F)cc(C#CCN(C)C)cc2F)c(Cl)nc2ncnn12)C(C)(C)C [Compound 55]", "Target Entity": "acetylated α-tubulin (AcTub) levels in QBI293 cells", "AcTub (1 uM - normalized)": 0.45}
{"Molecule": "C[C@H](Nc1c(-c2c(F)cc(OCCCCO)cc2F)c(Cl)nc2ncnn12)C(F)(F)F [Compound 19]", "Target Entity": "acetylated α-tubulin (AcTub) levels in QBI293 cells", "AcTub (1 uM - normalized)": 0.59}
{"Molecule": "CN(C)CCCOc1cc(F)c(-c2c(Cl)nc3ncnn3c2NCC2CCC2)c(F)c1 [Compound 30]", "Target Entity": "acetylated α-tubulin (AcTub) levels in QBI293 cells", "AcTub (1 uM - normalized)": 0.61}
{"Molecule": "CC(C)[C@H](Nc1c(-c2c(F)cc(F)cc2F)c(Cl)nc2ncnn12)C(F)(F)F [Compound 9]", "Target Entity": "acetylated α-tubulin (AcTub) levels in QBI293 cells", "AcTub (1 uM - normalized)": 0.17}
{"Molecule": "C[C@H](Nc1c(-c2c(F)cc(F)cc2F)c(Cl)nc2ncnn12)C1CC1 [Compound 16]", "Target Entity": "acetylated α-tubulin (AcTub) levels in QBI293 cells", "AcTub (1 uM - normalized)": 0.10}
{"Molecule": "C#Cc1cc(F)c(-c2c(Cl)nc3ncnn3c2N[C@H](C)C(C)C)c(F)c1 [Compound 34]", "Target Entity": "acetylated α-tubulin (AcTub) levels in QBI293 cells", "AcTub (1 uM - normalized)": 0.39}
